Origin of values: patent US20210198347A1

- target-system: T1, recombinant human C1r2s2 Flag/His tetramer (human, UniProt P09871 16-688; P00736 18-705)
- T1 construct: whole entries named; also called hc1r2s2; rC1r2s2
- T1 chain 1: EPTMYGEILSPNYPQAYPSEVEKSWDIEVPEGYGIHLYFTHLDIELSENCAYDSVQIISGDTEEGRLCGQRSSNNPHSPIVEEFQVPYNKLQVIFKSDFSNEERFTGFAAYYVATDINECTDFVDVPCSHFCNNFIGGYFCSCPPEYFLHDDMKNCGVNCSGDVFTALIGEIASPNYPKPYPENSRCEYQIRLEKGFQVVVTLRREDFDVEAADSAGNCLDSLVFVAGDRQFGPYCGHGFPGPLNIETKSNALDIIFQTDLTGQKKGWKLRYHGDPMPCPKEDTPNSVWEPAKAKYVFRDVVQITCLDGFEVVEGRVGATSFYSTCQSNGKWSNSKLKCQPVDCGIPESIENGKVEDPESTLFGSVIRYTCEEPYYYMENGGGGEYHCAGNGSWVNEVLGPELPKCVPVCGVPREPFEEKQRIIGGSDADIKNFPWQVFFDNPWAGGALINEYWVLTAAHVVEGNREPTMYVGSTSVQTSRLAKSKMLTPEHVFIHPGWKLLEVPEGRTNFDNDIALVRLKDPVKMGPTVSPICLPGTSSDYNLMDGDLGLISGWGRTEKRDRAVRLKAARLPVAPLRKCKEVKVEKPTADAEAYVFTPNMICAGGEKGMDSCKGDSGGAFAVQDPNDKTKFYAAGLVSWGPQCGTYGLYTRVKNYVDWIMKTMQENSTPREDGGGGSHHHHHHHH
- T1 chain 2: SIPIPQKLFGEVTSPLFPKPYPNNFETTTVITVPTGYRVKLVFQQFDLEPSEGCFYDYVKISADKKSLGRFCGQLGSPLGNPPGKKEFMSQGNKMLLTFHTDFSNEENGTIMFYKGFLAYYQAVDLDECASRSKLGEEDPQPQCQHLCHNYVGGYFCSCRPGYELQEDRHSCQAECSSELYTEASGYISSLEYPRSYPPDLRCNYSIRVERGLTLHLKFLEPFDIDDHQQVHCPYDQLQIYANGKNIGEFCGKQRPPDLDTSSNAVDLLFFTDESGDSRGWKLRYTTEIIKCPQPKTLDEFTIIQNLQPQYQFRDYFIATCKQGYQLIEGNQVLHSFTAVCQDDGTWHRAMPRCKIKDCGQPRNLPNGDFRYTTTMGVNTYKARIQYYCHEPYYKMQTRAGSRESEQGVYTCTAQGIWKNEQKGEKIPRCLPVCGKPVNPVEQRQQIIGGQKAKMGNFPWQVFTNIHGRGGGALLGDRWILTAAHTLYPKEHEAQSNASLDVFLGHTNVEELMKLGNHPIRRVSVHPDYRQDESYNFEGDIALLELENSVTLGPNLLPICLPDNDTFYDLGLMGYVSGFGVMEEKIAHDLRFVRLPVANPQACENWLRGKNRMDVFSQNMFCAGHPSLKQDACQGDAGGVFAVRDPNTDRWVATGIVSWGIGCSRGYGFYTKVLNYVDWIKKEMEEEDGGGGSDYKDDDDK
- test: SPR displacement (37 degrees C, pH 7.4): C1r2s2 captured by anti-His, C1q 100 nM pre-bound, antibody 500 nM at 10 micro L/min; time from antibody injection until the antibody sensorgram falls below the buffer sensorgram; competitor native human C1q
measured-attribute: Time point of crossover (post-injection) (s)
Form entry: value (s) — number only.

• COR0067ff-SG1148 (antibody, human IgG1, kappa, V domains shown, Anti-C1r antibody) VH: QSLEESGGGLVQPEGSLTLTCKASGIDFSSNAMCWVRQAPGKGLEWIGCIYTGSTTIWYASWAKGRFTISKTSSTTVTLQLNSLTVADTATYFCARRDSSSGYAFKLWGPGTLVTVSS VL: DIVMTQTPSSVSAAVGGTVTIKCQASENIYSNLAWYQQKSGQPPNLLIYGASTLESGVPSRFKGSGSGTEFTLTISDLECADAAIYYCQCTYDDSSTFGGGTKVEIKR = 85

Prompt: Request the reported Time point of crossover (post-injection) associated with COR0338gg-SG1148 (antibody, human IgG1, kappa, V domains shown, Anti-C1r antibody) VH: QSLEESGGGLVQPEGSLTLTCKASGIDFSSNAMCWVRQAPGKGLEWIACIYTGSTTIWYATWAKGRFTISKTSSTTVTLQLNSLTVADTATYFCARRASSSGYAFKLWGPGTLVTVSS VL: DVVMTQTPFSVSAAVGGTVTIKCQASESIYSNLAWYQQKPGQPPNLLIYGASTLESGVPSRFKGSGSGTEFTLTISDLECDDAAIYYCQCTYDDSSTFGGGTKVEIKR
Response: 101
